- SYSTEM UNDER TEST: Prostaglandin G/H synthase 2 (Homo sapiens, UniProt P35354)
- Sequence (P35354 whole entry): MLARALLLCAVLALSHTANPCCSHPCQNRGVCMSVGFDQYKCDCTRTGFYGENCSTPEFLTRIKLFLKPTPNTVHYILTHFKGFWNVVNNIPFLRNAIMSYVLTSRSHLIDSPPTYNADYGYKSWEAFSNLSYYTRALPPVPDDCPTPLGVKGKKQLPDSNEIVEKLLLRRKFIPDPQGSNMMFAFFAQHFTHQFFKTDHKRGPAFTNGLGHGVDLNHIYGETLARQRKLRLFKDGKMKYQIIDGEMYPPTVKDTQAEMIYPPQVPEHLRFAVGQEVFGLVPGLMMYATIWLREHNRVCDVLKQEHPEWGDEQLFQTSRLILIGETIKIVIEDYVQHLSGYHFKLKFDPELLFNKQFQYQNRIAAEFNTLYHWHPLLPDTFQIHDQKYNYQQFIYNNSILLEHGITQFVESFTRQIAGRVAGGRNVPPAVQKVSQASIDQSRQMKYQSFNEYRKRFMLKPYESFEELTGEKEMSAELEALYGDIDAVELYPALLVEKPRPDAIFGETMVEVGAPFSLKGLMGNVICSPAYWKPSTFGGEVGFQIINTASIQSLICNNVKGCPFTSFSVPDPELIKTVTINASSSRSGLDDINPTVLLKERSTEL
- TEST NAME: Inhibition of human recombinant COX2 pre-treated for 1 hr before 10-acetyl-3,7-dihydroxyphenoxazin substrate addition in presence of porcine liver esterase by fluorescence assay
- TEST CONDITIONS: read-out: IC50
ASSAY READOUT: IC50 (nM)
One number for each entry, in nM.

> print(dat)
                                   compound                         system.under.test  assay.readout  number
1  CC(C)c1c(COC(=O)C(C)c2cccc(C(=O)c3ccccc3)c2)n(C)n(-c2ccccc2)c1=O (stereo not drawn)  Prostaglandin G/H synthase 2 (Homo sapiens, UniProt P35354)           IC50    2200
2  CC(C)c1c(COC(=O)Cc2ccccc2Nc2c(Cl)cccc2Cl)n(C)n(-c2ccccc2)c1=O  Prostaglandin G/H synthase 2 (Homo sapiens, UniProt P35354)           IC50    9900

Then this compound:
### Prompt // fetch Prostaglandin G/H synthase 2 (Homo sapiens, UniProt P35354) IC50 for CC(C)Cc1ccc(C(C)C(=O)OCc2c(C(C)C)c(=O)n(-c3ccccc3)n2C)cc1 (stereo not drawn)
### Response 1300

---

- SYSTEM UNDER TEST: Prostaglandin G/H synthase 1 (Ovis aries) (UniProt P05979)
- Sequence (whole entry): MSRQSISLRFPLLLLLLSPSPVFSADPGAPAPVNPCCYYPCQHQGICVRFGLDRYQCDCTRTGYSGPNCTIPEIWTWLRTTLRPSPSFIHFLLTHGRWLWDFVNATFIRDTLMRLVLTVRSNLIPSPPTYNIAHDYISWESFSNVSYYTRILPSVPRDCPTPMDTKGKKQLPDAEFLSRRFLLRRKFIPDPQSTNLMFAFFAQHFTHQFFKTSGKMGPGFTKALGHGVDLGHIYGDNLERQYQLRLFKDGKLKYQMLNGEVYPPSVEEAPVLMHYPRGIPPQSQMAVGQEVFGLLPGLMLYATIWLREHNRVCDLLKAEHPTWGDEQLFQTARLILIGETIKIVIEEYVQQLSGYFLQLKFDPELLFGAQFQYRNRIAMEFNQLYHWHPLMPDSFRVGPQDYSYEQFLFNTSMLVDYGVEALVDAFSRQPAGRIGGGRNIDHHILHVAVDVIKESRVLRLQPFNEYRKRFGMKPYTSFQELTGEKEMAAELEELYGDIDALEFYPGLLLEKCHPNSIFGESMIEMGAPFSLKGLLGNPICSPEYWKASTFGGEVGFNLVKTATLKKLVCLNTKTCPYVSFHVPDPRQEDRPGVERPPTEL
- TEST NAME: Inhibition of purified ovine COX1 at saturation drug level pre-treated for 1 hr before 10-acetyl-3,7-dihydroxyphenoxazin substrate addition in absence of porcine liver esterase by fluorescence assay
- TEST CONDITIONS: concentration not given here
Can you tell me inhibition for the items I'm about to list?

# example entries with known answers
> print(dat)
                                   molecule  result
1  CC(C)c1c(CN(C)CCc2ccccn2)n(C)n(-c2ccccc2)c1=O     43%
2  CC(C(=O)O)c1cccc(C(=O)c2ccccc2)c1 (stereo unspecified)    100%
3            O=C(O)Cc1ccccc1Nc1c(Cl)cccc1Cl    100%
4  CC(C)c1c(COC(=O)Cc2ccccc2Nc2c(Cl)cccc2Cl)n(C)n(-c2ccccc2)c1=O     29%
5  CC(C)c1c(COC(=O)C(C)c2cccc(C(=O)c3ccccc3)c2)n(C)n(-c2ccccc2)c1=O (stereo unspecified)     43%

### Prompt Looking for the measured inhibition of Cc1c(N)c(=O)n(-c2ccccc2)n1C , can you help?
### Response 100%

---

- SYSTEM UNDER TEST: Prostaglandin G/H synthase 1 (Ovis aries) (UniProt P05979)
- TEST NAME: Inhibition of purified ovine COX1 at saturation drug level pre-treated for 1 hr before 10-acetyl-3,7-dihydroxyphenoxazin substrate addition in presence of porcine liver esterase by fluorescence assay
- TEST CONDITIONS: concentration not given here
Can you tell me inhibition for the items I'm about to list?
Give bare numbers, in %.

> print(dat)
                                   compound  number
1  CC(C)c1c(CN(C)CCc2ccccn2)n(C)n(-c2ccccc2)c1=O      43

I have 3 compounds here; please give me inhibition for each one.
1. CC(C)Cc1ccc(C(C)C(=O)OCc2c(C(C)C)c(=O)n(-c3ccccc3)n2C)cc1 (centres undefined)
2. CC(C)c1c(COC(=O)C(C)c2cccc(C(=O)c3ccccc3)c2)n(C)n(-c2ccccc2)c1=O (centres undefined)
3. CC(C)c1c(COC(=O)Cc2ccccc2Nc2c(Cl)cccc2Cl)n(C)n(-c2ccccc2)c1=O

### Response
100
100
100

---

- SYSTEM UNDER TEST: Prostaglandin G/H synthase 1 (Ovis aries)
- TEST NAME: Inhibition of purified ovine COX1 pre-treated for 1 hr before 10-acetyl-3,7-dihydroxyphenoxazin substrate addition in absence of porcine liver esterase by fluorescence assay
- TEST CONDITIONS: read-out: IC50
ASSAY READOUT: pIC50
One number for each entry, as −log10 of the molar value.

# example entries with known answers
> print(dat)
                                   molecule                         system.under.test  number
1  CC(C)c1c(CN(C)CCc2ccccn2)n(C)n(-c2ccccc2)c1=O  Prostaglandin G/H synthase 1 (Ovis aries)    4.62
2  CC(C)c1c(COC(=O)C(C)c2cccc(C(=O)c3ccccc3)c2)n(C)n(-c2ccccc2)c1=O (stereo not given)  Prostaglandin G/H synthase 1 (Ovis aries)    6.70
3  CC(C)c1c(COC(=O)Cc2ccccc2Nc2c(Cl)cccc2Cl)n(C)n(-c2ccccc2)c1=O  Prostaglandin G/H synthase 1 (Ovis aries)    5.15
4               Cc1c(N)c(=O)n(-c2ccccc2)n1C  Prostaglandin G/H synthase 1 (Ovis aries)    4.59

Then this molecule:
### Prompt // fetch Prostaglandin G/H synthase 1 (Ovis aries) pIC50 for CC(C(=O)O)c1cccc(C(=O)c2ccccc2)c1 (stereo not given)
### Response 6.10

---

- SYSTEM UNDER TEST: Liver carboxylesterase (Sus scrofa)
- Sequence (Q29550 whole entry): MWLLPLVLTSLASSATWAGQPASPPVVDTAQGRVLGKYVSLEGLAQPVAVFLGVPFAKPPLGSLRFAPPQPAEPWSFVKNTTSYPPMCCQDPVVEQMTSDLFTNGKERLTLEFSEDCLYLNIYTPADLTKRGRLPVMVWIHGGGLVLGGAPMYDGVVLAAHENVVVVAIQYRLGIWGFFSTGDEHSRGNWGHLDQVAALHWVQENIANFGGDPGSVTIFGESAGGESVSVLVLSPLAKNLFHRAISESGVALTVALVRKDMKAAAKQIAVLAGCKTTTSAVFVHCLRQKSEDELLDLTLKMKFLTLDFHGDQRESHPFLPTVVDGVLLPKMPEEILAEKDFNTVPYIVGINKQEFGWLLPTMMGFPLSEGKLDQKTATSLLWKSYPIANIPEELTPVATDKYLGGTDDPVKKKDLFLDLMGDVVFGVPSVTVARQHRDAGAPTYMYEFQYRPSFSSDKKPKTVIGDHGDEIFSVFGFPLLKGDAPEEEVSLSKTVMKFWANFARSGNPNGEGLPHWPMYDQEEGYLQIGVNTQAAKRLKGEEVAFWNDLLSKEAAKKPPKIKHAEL
- TEST NAME: Prodrug conversion assessed as half life for porcine liver esterase-mediated prodrug conversion measured every 4 minutes for 100 mins by UV-visible absorption spectroscopy
- Format: ADME
- TEST CONDITIONS: pig, isolated protein
ASSAY READOUT: t1/2

# example entries with known answers
> print(dat)
                                   compound                    system.under.test  assay.readout    result
1  CC(C)c1c(COC(=O)Cc2ccccc2Nc2c(Cl)cccc2Cl)n(C)n(-c2ccccc2)c1=O  Liver carboxylesterase (Sus scrofa)           t1/2  11.5 min
2  CC(C)Cc1ccc(C(C)C(=O)OCc2c(C(C)C)c(=O)n(-c3ccccc3)n2C)cc1 (stereo not given)  Liver carboxylesterase (Sus scrofa)           t1/2  28.8 min
3  Cc1c(NCc2c(C(C)C)c(=O)n(-c3ccccc3)n2C)c(=O)n(-c2ccccc2)n1C [BISFENAZONE]  Liver carboxylesterase (Sus scrofa)           t1/2    Stable
4  CC(C)c1c(COC(=O)C(C)c2cccc(C(=O)c3ccccc3)c2)n(C)n(-c2ccccc2)c1=O (stereo not given)  Liver carboxylesterase (Sus scrofa)           t1/2  38.5 min

### Prompt // fetch Liver carboxylesterase (Sus scrofa) t1/2 for CC(C)c1c(CN(C)CCc2ccccn2)n(C)n(-c2ccccc2)c1=O
### Response Stable
